ENDPOINT: melting point

O=c1ccn(-c2ccc(F)cc2)nc1-c1ccnn1-c1ccccc1 = 252 to 253 °C
Clc1ccnc2cc3c(cc12)OCO3 = 130 to 132 °C

Qu. Reported melting point for CCCCCCCCCCCCCC=C1CC(CO)(COC(C)=O)OC1=O (racemic) : what is it?
Ans. 58 to 59 °C

Qu. Next compound up: CC1(CNCc2cc3cc(NC(=O)c4ccc(OCC5CC5)cc4)ccc3[nH]2)COC1
Ans. 166 to 167 °C

Qu. Next compound up: CN(O)C(=O)c1ccccc1Nc1c(Cl)cccc1Cl
Ans. 137 to 140 °C

====

Listed here are compounds together with their documented melting point.

Solved cases (4 shown):
Cc1ccc(S(=O)(=O)N(Cc2ccc(C#N)cc2F)C2CCC2)cc1 = 146 to 147 °C
N#C/C=C\c1ccccc1C(=O)Cl = 72 to 74 °C
CCCCc1oc2ccccc2c1C(=O)NCc1ccc2c(-c3ccc(Cl)cc3)c(OC(Cc3ccccc3)C(=O)OC)ccc2c1 (centres undefined) = 59 to 62 °C
O=C(CCC1CCNCC1)c1ccc2[nH]c3ccccc3c2c1 = 206 to 209 °C

Qu. Reported melting point for O=C(COc1ccc([N+](=O)[O-])c(F)c1)NCc1ccccc1 : what is it?
Ans. 128 to 130 °C

Qu. Next compound up: Cn1nnnc1-c1cn(C)c2cc(Br)ccc2c1=O
Ans. 292 to 294 °C

Qu. Next compound up: CN1Cc2c(C(=O)NN)ncn2-c2ccsc2C1=O
Ans. > 260 °C

Qu. Next compound up: CC(=O)Oc1ccc(Cn2ncc(-c3ccc(S(C)(=O)=O)cc3)c(-c3ccc(F)cc3)c2=O)cc1
Ans. 172 to 174 °C

Qu. Next compound up: COc1ccc(-c2ccccc2C#N)cc1
Ans. 82 to 83 °C

Qu. Next compound up: CCOC(=O)c1c(NC)c(N=O)c2ccccn12
Ans. 156 to 157 °C

Qu. Next compound up: Cc1ccc(-c2c(NS(=O)(=O)c3ccc(C(C)(C)C)cc3)nc(NCCOC3CCCCO3)nc2OCCO)cc1 (centres undefined)
Ans. 113 to 116 °C

Qu. Next compound up: CC(=O)Nc1nc(CCc2ccc(CCN3CCN(C(=O)OC(C)(C)C)CC3)cc2)cs1
Ans. 178 to 179 °C

Qu. Next compound up: Cc1ccc(-c2c(-c3ccc(S(C)(=O)=O)cc3)[nH]c3ccccc23)cc1C
Ans. 206 to 207 °C

Qu. Next compound up: CC(C)C(NC(=O)c1ccc(C(=O)NCC(=O)OCc2ccccc2)cc1)C(=O)N(CC(=O)NC(C(=O)C(F)(F)F)C(C)C)C1Cc2ccccc2C1 (mixture of isomers)
Ans. 64 to 66 °C

Qu. Next compound up: c1cc(NC2=NCCO2)c2occc2c1
Ans. 124 to 126 °C

Qu. Next compound up: COC(=O)C1(C)CN(C(=S)Nc2ccc(Cl)cc2)N=C1c1ccc(Cl)cc1 (centres undefined)
Ans. 69 to 78 °C

Qu. Next compound up: Cc1c(O)cnn(C(C)(C)C)c1=O
Ans. 236 to 239 °C

Qu. Next compound up: Fc1ccc(Cn2c(NC3CCN(CCc4ccccc4)CC3)nc3ccc(F)cc32)cc1
Ans. 178 °C

Qu. Next compound up: C/C(=C\c1ccc(C(=O)O)cc1)c1ccc2c(c1)C(C)(C)CC(=O)C2(C)C
Ans. 249 to 250 °C

====

Residues, ends and D or L forms follow the SMILES beside them. *: point of attachment. Cbz = O=C(OCc1ccccc1)*
Listed here are molecules together with their documented melting point.

Solved cases (5 shown):
O=C(CCC1CCCC1)Nc1ccc(-n2nc(C(F)(F)F)cc2C(F)(F)F)cc1 = 130 to 132 °C
CCc1nc2c(C)cc(C)nc2n1Cc1ccc(C(CC(=O)NS(=O)(=O)c2ccccc2)c2ccccc2)cc1 (stereo not drawn) = 81 to 86 °C
OCc1csc(Nc2ccccc2)n1 = 115 to 118 °C
CCOC(=O)OC1=C(c2c(C)cc(C)cc2C)C(=O)N(N(C)C)C12CCN(N(C)C)CC2 = 105 °C
Cc1c(C=O)ncn1Cc1ccccc1 = 107 to 110 °C

Qu. Reported melting point for NC(=O)CCC(NC(=O)OCc1ccccc1)C(=O)NCC(=O)NCC(=O)NC(CO)C(=O)NC(CC(N)=O)C(=O)NC(Cc1ccccc1)C(N)=O (stereo not drawn) (Cbz-QGGSNF-NH2; configuration not given here) : what is it?
Ans. 225 to 227 °C

Qu. Next molecule up: OCCOc1ccc(C(=S)c2ccc(-c3ccccc3)cc2)c(O)c1
Ans. 77 to 79 °C

Qu. Next molecule up: CC(C)C(O)CCC(C)C1CCC2C3CC(O)C4CC(O)CCC4(C)C3CCC12C (stereo not drawn)
Ans. 169 to 173 °C

====

ENDPOINT: melting point

O=C(O)CN(Cn1nnc2ccccc21)Cn1nnc2ccccc21 = 163 to 166 °C
NC(=S)NC(c1ccccc1)c1ccc(Cl)cc1 (stereo not given) = 173 to 175 °C
CCCCC12CCC3C4=C(CCC3C1CCC2=O)CC(OC)=CC4 (stereo not given) = 124 to 128 °C
Nc1ncc2sc(=O)n(C3OC(CO)C(O)C3O)c2n1 (stereo not given) = 220 °C
COc1ccc2c(c1)CCC1CCN(C)C(=O)C(CC(C)=O)=C21 (stereo not given) = 190 to 192 °C
COC(=O)c1ccc(N=CC=Cc2ccccc2)cn1 = 128 to 131 °C
CCN1C(=O)N(c2cc(OC)cc(OC)c2)Cc2cnc(SC)nc21 = 134 to 136 °C
CNS(=O)(=O)c1ccc(NC=C2C(=O)Nc3ccc4ncsc4c32)cc1CCOCCO = 165 °C

Qu. Reported melting point for CCOc1ccnc(CSc2nc3ccc(C(F)(F)F)cc3[nH]2)c1C : what is it?
Ans. 173 to 177 °C

Qu. Next compound up: O=C1C(Cc2ccccc2)SC(=S)N1c1nc2ccccc2s1 (stereo not given)
Ans. 187 to 189 °C

====

Listed here are compounds together with their documented melting point.

Solved cases (3 shown):
CCNc1nc(C)c(-c2ccnc(Nc3ccc4c(c3)OCO4)n2)s1 = 194 to 195 °C
COc1cc2ncc(C#N)c(Nc3ccc(F)c(Cl)c3)c2cc1NC(=O)C=CCN(C)OC = 210 to 217 °C
CC1CCC(=O)N1CC(=O)NCCN1C(C)CCCC1C (centres undefined) = 115 to 116 °C

Continue with the compound presented below.
Qu. Reported melting point for CC1(C)COC(c2ccc(Br)cc2)OC1 : what is it?
Ans. 62 to 64 °C

====

Listed here are compounds together with their documented melting point.

COC(=O)c1cn2c(n1)COc1cc(C)ccc1-2 = 180 to 181 °C
COc1ccc(-c2cc(C(=O)Nc3cccc(F)n3)c3ccccc3n2)cc1OC = 225 to 226 °C
Fc1ccc(C#Cc2nccs2)cc1 = 78 to 79 °C
COc1cc2c3c(c1O)-c1ccc(Cl)cc1CC3N(C)CC2 (stereo unspecified) = 155 to 157 °C
Cc1ccc(-c2nc(N)ncc2-c2ccc(=O)n(C)n2)cc1 = 230 °C

Qu. Reported melting point for N=C(NCc1ccco1)NN=Cc1c(Cl)cccc1Cl : what is it?
Ans. 134 to 136 °C

Qu. Next compound up: O=C(NC[C@@H](O)C(=O)O)OCC1c2ccccc2-c2ccccc21
Ans. 165 to 166 °C

Qu. Next compound up: CC1(C)OC(=O)N2CCNCC21 (stereo unspecified)
Ans. 92 to 93 °C

Qu. Next compound up: COC(=O)C1C(=O)NC(=O)C12C(=O)N1c3ccccc3Sc3cccc2c31 (stereo unspecified)
Ans. 221 to 224 °C

Qu. Next compound up: CC(C#N)c1ccc(Cc2ccccc2CC#N)cc1 (stereo unspecified)
Ans. 61 to 64 °C

Qu. Next compound up: CCc1ccc(OC(C)(C)C(=O)O)cc1OCCCc1cn(-c2ccc(C(F)(F)F)cn2)nc1C(C)C
Ans. 115 to 116 °C

====

Listed here are molecules together with their documented melting point.

COc1ccc(Cn2nnnc2C(=O)Nc2cc(C(F)(F)F)cc(NC(=O)c3nnnn3Cc3ccc(OC)cc3)c2Cl)cc1 = 185 to 186 °C
CC(CN(C)C)N1c2ccccc2Sc2ccc(C(=O)NCC3CC3)cc21 (racemic) = 90 °C
Cc1nc(CNc2c(C)cccc2C)n[nH]1 = 125 to 126 °C
COc1cccc(COc2cc3c(cc2-c2cc(C=CC(=O)O)ccc2O)C(C)(C)CCC3(C)C)c1 = 113 to 115 °C

Qu. Reported melting point for COc1ccc(CN(CC(=O)NO)S(=O)(=O)c2ccc(OC)cc2)cc1 : what is it?
Ans. 134 to 136 °C
